// provenance: ChEMBL document CHEMBL4433250

Item-by-item account of log10(IC50)
Molecular target: Transcriptional enhancer factor TEF-3 (Homo sapiens)
Experiment: Inhibition of human TEAD4 (217 to 434 residues) expressed in Escherichia coli BL21 (DE3) interaction with N-biotinylated YAP (60 to 100 residues) incubated for 2 hrs by TR-FRET assay
Where a SMILES comes first, the peptide text is derived from it. [ ]: non-standard residue; d: D form. Trp(6-Cl) = N[C@@H](Cc1c[nH]c2cc(Cl)ccc12)C(=O)O; 1Nal = N[C@@H](Cc1cccc2ccccc12)C(=O)O; Hyp = O=C(O)[C@@H]1C[C@@H](O)CN1; Cba = N[C@@H](CC1CCC1)C(=O)O; Nle = CCCC[C@H](N)C(=O)O
Hello, just confirming the data are log10 of IC50 with units of nM.

Worked cases, log10(IC50) given:
{"compound": "CC(C)C[C@H](NC(=O)[C@H](CCCNC(=N)N)NC(=O)[C@H](Cc1c[nH]c2cc(Cl)ccc12)NC(=O)[C@@H]1CCCN1)C(=O)N[C@@H](CCCNC(=N)N)C(=O)N[C@@H](CCCCN)C(=O)N[C@@H](CC1CCC1)C(=O)N1CCC[C@H]1C(=O)N[C@@H](CC(=O)O)C(=O)N[C@@H](CO)C(=O)N[C@@H](Cc1ccccc1)C(=O)N[C@@H](Cc1cccc2ccccc12)C(=O)N[C@@H](CCCCN)C(=O)N1CCC[C@H]1C(=O)N1CCC[C@H]1C(=O)O (H-P[Trp(6-Cl)]RLRK[Cba]PDSF[1Nal]KPP-OH)", "reading": 2.33}
{"compound": "CCCC[C@H](NC(=O)[C@H](CCCCN)NC(=O)[C@H](CCCNC(=N)N)NC(=O)[C@H](CC(C)C)NC(=O)[C@H](CCCNC(=N)N)NC(=O)[C@H](Cc1c[nH]c2cc(Cl)ccc12)NC(=O)[C@@H]1CCCN1)C(=O)N1CCC[C@H]1C(=O)N[C@@H](CC(=O)O)C(=O)N[C@@H](CO)C(=O)N[C@@H](Cc1ccccc1)C(=O)N[C@@H](Cc1cccc2ccccc12)C(=O)N[C@@H](CCCCN)C(=O)N1CCC[C@H]1C(=O)N1CCC[C@H]1C(=O)O (H-P[Trp(6-Cl)]RLRK[Nle]PDSF[1Nal]KPP-OH)", "reading": 2.61}
{"compound": "CCCC[C@H](NC(=O)[C@@H]1CCCN1)C(=O)N[C@@H](CCCNC(=N)N)C(=O)N[C@@H](CC(C)C)C(=O)N[C@@H](CCCNC(=N)N)C(=O)N[C@@H](CCCCN)C(=O)N[C@@H](CC(C)C)C(=O)N1CCC[C@H]1C(=O)N[C@@H](CC(=O)O)C(=O)N[C@@H](CO)C(=O)N[C@@H](Cc1ccccc1)C(=O)N[C@@H](Cc1ccccc1)C(=O)N[C@@H](CCCCN)C(=O)N1CCC[C@H]1C(=O)N1CCC[C@H]1C(=O)O (H-P[Nle]RLRKLPDSFFKPP-OH)", "reading": 4.83}
{"compound": "CC(C)C[C@H](NC(=O)[C@H](CCCNC(=N)N)NC(=O)[C@H](Cc1c[nH]c2cc(Cl)ccc12)NC(=O)[C@@H]1CCCN1)C(=O)N[C@@H](CCCNC(=N)N)C(=O)N[C@@H](CCCCN)C(=O)N[C@@H](CC1CCC1)C(=O)N1CCC[C@H]1C(=O)N[C@@H](CC(=O)O)C(=O)N[C@@H](CO)C(=O)N[C@@H](Cc1ccccc1)C(=O)N[C@@H](Cc1cccc2ccccc12)C(=O)N[C@@H](CCCCN)C(=O)N[C@@H](CCC(=O)O)C(=O)N1CCC[C@H]1C(=O)O (H-P[Trp(6-Cl)]RLRK[Cba]PDSF[1Nal]KEP-OH)", "reading": 1.65}

Next item in the queue.
Query: log10(IC50) for CC(C)C[C@H](NC(=O)[C@H](CCCNC(=N)N)NC(=O)[C@H](Cc1c[nH]c2cc(Cl)ccc12)NC(=O)[C@@H]1CCCN1)C(=O)N[C@@H](CCCNC(=N)N)C(=O)N[C@@H](CCCCN)C(=O)N[C@@H](CC1CCC1)C(=O)N1C[C@H](O)C[C@H]1C(=O)N[C@@H](CC(=O)O)C(=O)N[C@@H](CO)C(=O)N[C@@H](Cc1ccccc1)C(=O)N[C@@H](Cc1cccc2ccccc12)C(=O)N[C@@H](CCCCN)C(=O)N[C@@H](CCC(=O)O)C(=O)N1CCC[C@H]1C(=O)O (H-P[Trp(6-Cl)]RLRK[Cba][Hyp]DSF[1Nal]KEP-OH) ?
Result: 1.20

----------
Molecular target: Transcriptional enhancer factor TEF-3 (Homo sapiens, UniProt Q15561)
Sequence (Q15561 whole entry, the tested form may be a part): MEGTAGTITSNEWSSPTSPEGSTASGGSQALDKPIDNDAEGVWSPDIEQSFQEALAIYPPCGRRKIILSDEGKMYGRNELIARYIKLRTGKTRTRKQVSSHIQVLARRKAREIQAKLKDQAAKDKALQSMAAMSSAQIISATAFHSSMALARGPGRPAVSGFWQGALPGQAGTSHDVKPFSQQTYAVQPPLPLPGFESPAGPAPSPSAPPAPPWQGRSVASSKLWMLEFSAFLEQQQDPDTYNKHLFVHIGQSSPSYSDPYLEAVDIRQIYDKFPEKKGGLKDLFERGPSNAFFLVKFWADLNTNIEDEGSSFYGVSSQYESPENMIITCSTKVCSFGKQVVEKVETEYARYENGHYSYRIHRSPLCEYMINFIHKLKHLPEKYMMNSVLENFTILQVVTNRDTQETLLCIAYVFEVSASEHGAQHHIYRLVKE
Assay: Inhibition of human TEAD4 (217 to 434 residues) expressed in Escherichia coli BL21 (DE3) interaction with N-biotinylated YAP (60 to 100 residues) incubated for 2 hrs by TR-FRET assay
readout-kind: IC50

{"substance": "H-PMRLRKLPDSFFKPP-OH", "reading": "70 µM"}

Next item in the queue.
Query: IC50 for H-PWRLRKLPDSFFKPP-OH ?
Result: 24.2 µM

----------
Item-by-item account of IC50
Target: Transcriptional enhancer factor TEF-3 (Homo sapiens)
Experiment: Inhibition of human TEAD4 (217 to 434 residues) expressed in Escherichia coli BL21 (DE3) interaction with N-biotinylated YAP (60 to 100 residues) incubated for 2 hrs by TR-FRET assay
Where a SMILES comes first, the peptide text is derived from it. [ ]: non-standard residue; d: D form. Trp(6-Cl) = N[C@@H](Cc1c[nH]c2cc(Cl)ccc12)C(=O)O; Phe(3-F) = N[C@@H](Cc1cccc(F)c1)C(=O)O; 1Nal = N[C@@H](Cc1cccc2ccccc12)C(=O)O; Hyp = O=C(O)[C@@H]1C[C@@H](O)CN1; Cba = N[C@@H](CC1CCC1)C(=O)O; Nle = CCCC[C@H](N)C(=O)O; Ac3c = NC1(C(=O)O)CC1
// return numeric value only (unit: nM, not printed)

Worked cases, IC50 given:
{"compound": "N=C(N)NCCC[C@H](NC(=O)[C@H](Cc1c[nH]c2cc(Cl)ccc12)NC(=O)[C@@H]1CCCN1)C(=O)NC1(C(=O)N[C@@H](CCCNC(=N)N)C(=O)N[C@@H](CCCCN)C(=O)N[C@@H](CC2CCC2)C(=O)N2C[C@H](O)C[C@H]2C(=O)N[C@@H](CC(=O)O)C(=O)N[C@@H](CO)C(=O)N[C@@H](Cc2ccccc2)C(=O)N[C@@H](Cc2cccc3ccccc23)C(=O)N[C@@H](CCCCN)C(=O)N[C@@H](CCC(=O)O)C(=O)N2CCC[C@H]2C(=O)O)CC1 (H-P[Trp(6-Cl)]R[Ac3c]RK[Cba][Hyp]DSF[1Nal]KEP-OH)", "unit-abbreviation": "nM", "IC50": 9}
{"compound": "CC(C)C[C@H](NC(=O)[C@H](CCCNC(=N)N)NC(=O)[C@H](Cc1c[nH]c2cc(Cl)ccc12)NC(=O)[C@@H]1CCCN1)C(=O)N[C@@H](CCCNC(=N)N)C(=O)N[C@@H](CCCCN)C(=O)N[C@@H](CC(C)C)C(=O)N1CCC[C@H]1C(=O)N[C@@H](CC(=O)O)C(=O)N[C@@H](CO)C(=O)N[C@@H](Cc1ccccc1)C(=O)N[C@@H](Cc1ccccc1)C(=O)N[C@@H](CCCCN)C(=O)N1CCC[C@H]1C(=O)N1CCC[C@H]1C(=O)O (H-P[Trp(6-Cl)]RLRKLPDSFFKPP-OH)", "unit-abbreviation": "nM", "IC50": 5830}
{"compound": "CCCC[C@H](NC(=O)[C@H](CCCCN)NC(=O)[C@H](CCCNC(=N)N)NC(=O)[C@H](CC(C)C)NC(=O)[C@H](CCCNC(=N)N)NC(=O)[C@H](Cc1c[nH]c2cc(Cl)ccc12)NC(=O)[C@@H]1CCCN1)C(=O)N1CCC[C@H]1C(=O)N[C@@H](CC(=O)O)C(=O)N[C@@H](CO)C(=O)N[C@@H](Cc1ccccc1)C(=O)N[C@@H](Cc1ccccc1)C(=O)N[C@@H](CCCCN)C(=O)N1CCC[C@H]1C(=O)N1CCC[C@H]1C(=O)O (H-P[Trp(6-Cl)]RLRK[Nle]PDSFFKPP-OH)", "unit-abbreviation": "nM", "IC50": 1560}

Next item in the queue.
Query: IC50 for CCCC[C@H](NC(=O)[C@H](CCCCN)NC(=O)[C@H](CCCNC(=N)N)NC(=O)[C@H](CC(C)C)NC(=O)[C@H](CCCNC(=N)N)NC(=O)[C@H](Cc1c[nH]c2cc(Cl)ccc12)NC(=O)[C@@H]1CCCN1)C(=O)N1CCC[C@H]1C(=O)N[C@@H](CC(=O)O)C(=O)N[C@@H](CO)C(=O)N[C@@H](Cc1cccc(F)c1)C(=O)N[C@@H](Cc1ccccc1)C(=O)N[C@@H](CCCCN)C(=O)N1CCC[C@H]1C(=O)N1CCC[C@H]1C(=O)O (H-P[Trp(6-Cl)]RLRK[Nle]PDS[Phe(3-F)]FKPP-OH) ?
Result: 2400
